System: rodent lifetime carcinogenesis bioassay, tumor incidence TD50
Assay: carcinogenic potency in animals, long-term in vivo studies, CPDB compilation (AID 1745844)
Settings: rat; strain Sherman; males; by gavage; site: all sites; lesion: lymphatic leukemia; dosed 60 weeks; study length 60 weeks
observedProperty: TD50

# molecule, reportedMeasurement
measured = [
    ("CC1CN1P(=O)(N1CC1C)N1CC1C (stereo unspecified)", "4.46 mg/kg/day"),
]

====

Tested on: rodent lifetime carcinogenesis bioassay, tumor incidence TD50
Assay: carcinogenic potency in animals, long-term in vivo studies, CPDB compilation (AID 1745844)
Details: rat; strain Sprague-Dawley; females; by gavage; site: fat; lesion: lipoma; dosed 52 weeks; study length 141 weeks
observedProperty: TD50 (mg/kg/day)

# smilesNotation, assayedTarget, observedProperty, reportedMeasurement
measured = [
    ("C=C(F)F", "rodent lifetime carcinogenesis bioassay, tumor incidence TD50", "TD50", 60.3),
]

This collection of values is drawn from PubChem BioAssay AID1745844.
